assay.explanation: Terminal half life in monkey plasma at 0.32 mg/kg, iv by cassette assay
Format: ADME, organism-based, Macaca mulatta
Set-up: dose 0.32 mg/kg, route intravenous
condition.summary: rhesus monkey, read-out: beta t1/2 (converted)
This section presents compounds with their documented half-life values.
measure: half-life (h)

- compound.smiles: "CS(=O)(=O)NC(=O)c1ccc(-c2ccc(CCNC[C@H](O)c3cccnc3)cc2)cc1OC1CCCCC1.Cl.Cl"
  unit.symbol: "h"
  recorded.number: 4.7
- compound.smiles: "CC(C)Nc1cc(-c2ccc(CCNC[C@H](O)c3ccccc3)cc2)ccc1C(=O)NS(C)(=O)=O.Cl.Cl"
  unit.symbol: "h"
  recorded.number: 3.1
- compound.smiles: "CC(C)Sc1cc(-c2ccc(CCNC[C@H](O)c3ccccc3)cc2)ccc1C(=O)NS(C)(=O)=O.Cl"
  unit.symbol: "h"
  recorded.number: 5.8

* * *

assay.explanation: Bioavailability in Beagle dog at 0.10 mg/kg, po and iv by cassette assay
Assay type: ADME, organism-based, Canis lupus familiaris
condition.summary: in vivo, 0.1 mg/kg
measure: bioavailability (%)

- compound.smiles: "CC(C)Cc1cc(-c2ccc(CCNC[C@H](O)c3ccccc3)cc2)ccc1C(=O)NS(C)(=O)=O.Cl"
  recorded.number: 67
- compound.smiles: "CC(C)Nc1cc(-c2ccc(CCNC[C@H](O)c3cccnc3)cc2)ccc1C(=O)NS(C)(=O)=O.Cl.Cl.Cl"
  recorded.number: 12
- compound.smiles: "CS(=O)(=O)NC(=O)c1ccc(-c2ccc(CCNC[C@H](O)c3ccccc3)cc2)cc1OC1CCCCC1.Cl"
  recorded.number: 70
- compound.smiles: "CS(=O)(=O)NC(=O)c1ccc(-c2ccc(CCNC[C@H](O)c3ccccc3)cc2)cc1C1CCCC1.Cl"
  recorded.number: 50
- compound.smiles: "CS(=O)(=O)NC(=O)c1ccc(-c2ccc(CCNC[C@H](O)c3cccnc3)cc2)cc1C1CCCC1.Cl.Cl"
  recorded.number: 18
- compound.smiles: "CC(C)Sc1cc(-c2ccc(CCNC[C@H](O)c3cccnc3)cc2)ccc1C(=O)NS(C)(=O)=O.Cl.Cl"
  recorded.number: 14
- compound.smiles: "CC(C)Cc1cc(-c2ccc(CCNC[C@H](O)c3cccnc3)cc2)ccc1C(=O)NS(C)(=O)=O.Cl.Cl"
  recorded.number: 21
- compound.smiles: "CC(C)Nc1cc(-c2ccc(CCNC[C@H](O)c3ccccc3)cc2)ccc1C(=O)NS(C)(=O)=O.Cl.Cl"
  recorded.number: 45

* * *

assay.explanation: Bioavailability in monkey at 0.32 mg/kg, po and iv by cassette assay
Assay type: ADME, organism-based, Macaca mulatta
condition.summary: rhesus monkey, in vivo
Here the recorded bioavailability is given for each entry.

- compound.smiles: "CC(C)Nc1cc(-c2ccc(CCNC[C@H](O)c3ccccc3)cc2)ccc1C(=O)NS(C)(=O)=O.Cl.Cl"
  unit.symbol: "%"
  bioavailability: 10
- compound.smiles: "CS(=O)(=O)NC(=O)c1ccc(-c2ccc(CCNC[C@H](O)c3cccnc3)cc2)cc1OC1CCCCC1.Cl.Cl"
  unit.symbol: "%"
  bioavailability: 38
- compound.smiles: "CC(C)Sc1cc(-c2ccc(CCNC[C@H](O)c3ccccc3)cc2)ccc1C(=O)NS(C)(=O)=O.Cl"
  unit.symbol: "%"
  bioavailability: 24
- compound.smiles: "CS(=O)(=O)NC(=O)c1ccc(-c2ccc(CCNC[C@H](O)c3cnccc3N)cc2)cc1OC1CCCCC1.Cl.Cl"
  unit.symbol: "%"
  bioavailability: 0
